- Target or system: HLA B*4402 (human)
- Assay protocol: peptide-HLA binding, inhibition of radiolabeled probe
Value kind: pIC50
// pIC50: -log10(molar conc.)

For "YENLKYSVI" the binder record lists pIC50 as 7.05
